- System: Gli-luciferase activity
- assay info: Reporter gene assay (RGA) in TMHh12 cells, antagonism of Gli-luciferase activity in the presence of a Smo agonist
- Assay type: cell-based
- run conditions: 25 nM small molecule Smo agonist, read-out: RGA (25 nM Smo agonist) IC50
Entries and their IC50

Example entries and their recorded answers appear below.
c1ccc(N2CCN(c3nnc(Cc4ccncc4)c4ccccc34)CC2)nc1 [Example 23]; 10 to 40 µM
COc1ccc(CN2Cc3c(Cc4ccccc4)nnc(N4CCN(c5ccc(C(F)(F)F)cn5)CC4)c3C2)cc1 [Example 243]; 1 to 10 µM
COCC(=O)OCc1ccc(N2CCN(c3nnc(Cc4ccccc4)c4ccccc34)CC2)nc1 [Example 159]; 1 to 10 µM
Cc1cc(Cc2nnc(N3CCN(c4ccccn4)CC3)c3ccccc23)ccn1 [Example 22]; 10 to 40 µM
FC(F)(F)c1ccc(N2CCN(c3nnc(Cc4ccccc4)c4ccccc34)CC2)nc1 [Example 2]; 0.1 to 1 µM
Cc1cc(Cc2nnc(N3CCN(c4cccc5ccccc45)CC3)c3ccccc23)ccn1 [Example 35]; 1 to 10 µM
COC(=O)CC(SCC(=O)NCc1ccc(N2CCN(c3nnc(Cc4ccccc4)c4ccccc34)CC2)nc1)C(=O)OC (centres unmarked) [Example 215]; 1 to 10 µM

Q) Form field: IC50 recorded for NCc1ccc(N2CCN(c3nnc(Cc4ccncc4)c4ccccc34)CC2)cc1 [Example 72] with Gli-luciferase activity (enter value)
A) 10 to 40 µM

----------
# collection of IC50 values tested on UniProt P56726

The examples below pair each entry with its known result.
Cc1cccc(Cc2nnc(N3CCN(c4ccc(C#N)cn4)CC3)c3ccccc23)c1 [Example 69]; 100 to 1000 nM
CN(CCO)C(=O)c1cnc(N2CCN(c3nnc(Cc4ccccc4)c4ccccc34)CC2)nc1 [Example 54cc]; 100 to 1000 nM
CC(C)(O)c1ccc(N2CCN(c3nnc(Cc4ccccc4Cl)c4ccccc34)CC2)nc1 [Example 192]; < 100 nM
O=C(c1ccc(N2CCN(c3nnc(Cc4ccccc4)c4ccccc34)CC2)nc1)N1CCOCC1 [Example 54k]; < 100 nM
c1ccc(Cc2nnc(N3CCC(c4ccccc4)CC3)c3ccccc23)cc1 [Example 12]; 10000 to 40000 nM

Q) I have this compound here, CN(C)C(=O)c1ccc(N2CCN(c3nnc(Cc4ccccc4)c4ccccc34)CC2)nc1 [Example 54s] , and I need its recorded IC50.
A) < 100 nM

Q) If you can, please state the reported IC50 value of CC(O)(CO)c1cnc(N2CCN(c3nnc(Cc4ccccc4)c4ccccc34)CC2)cn1 (centres unmarked) [Example 166] .
A) < 100 nM

Q) Look up IC50: Cc1cc(N2CCN(c3ccc(C#N)cn3)CC2)nnc1Cc1ccccc1 [Example 87]
A) 100 to 1000 nM

----------
- Test system: Gli-luciferase activity
- assay info: Reporter gene assay (RGA) in TMHh12 cells, antagonism of Gli-luciferase activity in the presence of a Smo agonist
- Type: cell-based
- run conditions: 25 nM small molecule Smo agonist, read-out: RGA (25 nM Smo agonist) IC50
recorded endpoint: IC50

Below, 5 molecules whose answers are already recorded.
c1ccc(Cc2nnc(N3CCN(c4ccccc4)CC3)c3ccccc23)cc1; 1000 to 10000 nM
CN(C)C(=O)c1ccc(N2CCN(c3nnc(Cc4ccc(F)cc4F)c4ccccc34)CC2)nc1; 100 to 1000 nM
O=C(c1cnc(N2CCN(c3nnc(Cc4ccccc4)c4ccccc34)CC2)nc1)N1CCOCC1 [Example 54bb]; 100 to 1000 nM
Fc1cnc(F)c(N2CCN(c3nnc(Cc4ccccc4)c4ccccc34)CC2)c1; 1000 to 10000 nM
C[C@@H]1CN(c2nnc(Cc3ccccc3)c3ccccc23)CCN1c1cnc(C(C)(C)O)cn1; < 100 nM

Q) What value of measured IC50 is listed for O=C(c1ccc(C(F)(F)F)cc1)N1CCC(c2cn(Cc3ccc(F)cc3)c3ccccc23)CC1 ?
A) 10000 to 40000 nM

Q) Record request: IC50 value, item N#Cc1ccc(N2CCN(c3nnc(Cc4ccc(F)cc4)c4c3CCC4)CC2)nc1 [Example 93c]
A) 100 to 1000 nM

Q) Given the entry O=C(c1cccc(F)c1)N1CCC(c2cn(Cc3ccc(F)cc3)c3ccccc23)CC1 , report its measured IC50.
A) 10000 to 40000 nM

Q) State the recorded IC50 for this entry: COCCNC(=O)c1ccc(N2CCN(c3nnc(Cc4ccccc4)c4ccccc34)CC2)nc1 [Example 54f]
A) 100 to 1000 nM

Q) What value of measured IC50 is listed for CCCc1cnc(N2CCCN(c3nnc(Cc4ccccc4)c4ccccc34)CC2)nc1 ?
A) 100 to 1000 nM

Q) For COC(=O)CNC(=O)c1ccc(N2CCN(c3nnc(Cc4ccccc4)c4ccccc34)CC2)nc1 [Example 54r] , what is its reported IC50?
A) 100 to 1000 nM

Q) What value of IC50 has been reported for the following molecule? N#Cc1ccc(N2CCN(c3cnc(Cc4cccc(Cl)c4)c4ccccc34)CC2)nc1
A) 10000 to 40000 nM

Q) What measured IC50 goes with CC(=O)Nc1ccc(N2CCN(c3nnc(Cc4ccccc4)c4ccccc34)CC2)nc1 ?
A) 100 to 1000 nM

Q) Could you tell me which IC50 is on file for Cc1cc(Cc2nnc(N3CCC(c4ccccc4)CC3)c3ccccc23)ccn1 ?
A) 1000 to 10000 nM

Q) Which value of IC50 has been reported for CCCNC(=O)c1ccc(N2CCN(c3nnc(Cc4ccccc4)c4ccccc34)CC2)nc1 [Example 54n] in the records?
A) 100 to 1000 nM

Q) Data request, read-out IC50, for CC(c1ccccc1)c1nnc(N2CCN(c3ccc(C#N)cn3)CC2)c2ccccc12 (centres unmarked)
A) 1000 to 10000 nM

Q) # get_value(readout='IC50', item= N#Cc1ccc(N2CCN(c3nnc(Cc4ccc(Cl)cc4)c4ccccc34)CC2)nc1 )
A) 100 to 1000 nM

----------
- Tested on: Gli-luciferase activity
- assay info: Reporter gene assay (RGA) in TMHh12 cells, antagonism of Gli-luciferase activity in the presence of a Smo agonist
- Format: cell-based
- run conditions: 25 nM small molecule Smo agonist, read-out: RGA (25 nM Smo agonist) IC50
pIC50: −log10 of the molar value.
recorded endpoint: pIC50

NCc1ccc(N2CCN(c3nnc(Cc4ccccc4)c4ccccc34)CC2)cc1; 5.00 to 6.00
FC(F)(F)c1ccnc(N2CCN(c3nnc(Cc4ccccc4)c4ccccc34)CC2)n1; 6.00 to 7.00
N#Cc1ccc(Cc2nnc(N3CCN(c4ccc(C#N)cn4)CC3)c3ccccc23)cc1; 6.00 to 7.00
CCOC(=O)c1cnc(N2CCN(c3nnc(Cc4ccccc4)c4ccccc34)C[C@H]2C(=O)OC)nc1C(F)(F)F; 5.00 to 6.00

Okay, next one:
Q) Item under review: O=C(c1ccc(N2CCN(c3nnc(Cc4ccccc4)c4ccccc34)CC2)nc1)N1CCOCC1 [Example 54k] . Reported pIC50?
A) 6.00 to 7.00

----------
pIC50: −log10 of the molar value.
Observed pIC50 values for mouse Smoothened receptor (Mus musculus) are listed in what follows.

CC(C)(O)c1cnc(N2CCN(c3nnc(Cc4ccccc4)c4ccccc34)CC2)nc1; > 7.00
CC(c1ccccc1)c1nnc(N2CCN(c3ccc(C#N)cn3)CC2)c2ccccc12 (centres unmarked); 5.00 to 6.00
CS(=O)(=O)NCc1ccc(N2CCN(c3nnc(Cc4ccccc4)c4ccccc34)CC2)nc1; > 7.00
FC(F)(F)c1ccc(N2CCCN(c3nnc(Cc4ccccc4)c4ccccc34)CC2)nc1; > 7.00
CC(O)c1ccc(N2CCN(c3nnc(Cc4ccccc4)c4ccccc34)CC2)nc1 (centres unmarked); > 7.00

Q) Could you share what pIC50 was measured for N#Cc1ccc(C(=O)N2CCC(c3cn(Cc4ccc(F)cc4)c4ccccc34)CC2)cc1 , tested on mouse Smoothened receptor (Mus musculus)?
A) 6.00 to 7.00

Q) Give pIC50 (mouse Smoothened receptor (Mus musculus)) of the following compound: Cc1nc(N2CCN(c3nnc(Cc4ccccc4)c4ccccc34)CC2)ccc1C#N
A) 5.00 to 6.00

Q) Enter reported pIC50 observed with mouse Smoothened receptor (Mus musculus) for N#Cc1ccc(N2CCN(c3nnc(Cc4ccccc4)c4ccccc34)CC2)nc1
Sequence (P56726 33-793): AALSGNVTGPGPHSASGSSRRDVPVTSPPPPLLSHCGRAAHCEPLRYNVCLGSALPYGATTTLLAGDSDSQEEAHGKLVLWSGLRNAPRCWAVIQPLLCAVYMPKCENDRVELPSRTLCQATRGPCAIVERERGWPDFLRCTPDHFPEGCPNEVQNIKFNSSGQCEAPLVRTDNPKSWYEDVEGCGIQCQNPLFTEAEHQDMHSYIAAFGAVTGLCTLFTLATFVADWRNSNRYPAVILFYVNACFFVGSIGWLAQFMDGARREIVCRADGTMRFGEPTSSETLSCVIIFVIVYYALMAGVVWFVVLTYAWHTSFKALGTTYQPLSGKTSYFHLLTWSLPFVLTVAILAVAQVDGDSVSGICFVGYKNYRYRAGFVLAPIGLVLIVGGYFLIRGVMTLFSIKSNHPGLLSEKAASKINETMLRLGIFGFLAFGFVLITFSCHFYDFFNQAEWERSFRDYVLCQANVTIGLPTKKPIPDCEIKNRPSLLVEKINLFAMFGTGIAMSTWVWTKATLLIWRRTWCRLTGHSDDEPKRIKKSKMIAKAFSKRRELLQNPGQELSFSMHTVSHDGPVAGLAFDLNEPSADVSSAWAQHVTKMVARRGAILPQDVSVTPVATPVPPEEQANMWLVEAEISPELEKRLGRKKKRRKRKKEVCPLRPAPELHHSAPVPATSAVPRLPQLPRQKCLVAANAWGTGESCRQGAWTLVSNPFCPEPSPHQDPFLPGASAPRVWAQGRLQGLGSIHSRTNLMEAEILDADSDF
A) 5.00 to 6.00

----------
- tgt: human Smoothened receptor (Homo sapiens, UniProt Q99835)
- Sequence (Q99835 28-787): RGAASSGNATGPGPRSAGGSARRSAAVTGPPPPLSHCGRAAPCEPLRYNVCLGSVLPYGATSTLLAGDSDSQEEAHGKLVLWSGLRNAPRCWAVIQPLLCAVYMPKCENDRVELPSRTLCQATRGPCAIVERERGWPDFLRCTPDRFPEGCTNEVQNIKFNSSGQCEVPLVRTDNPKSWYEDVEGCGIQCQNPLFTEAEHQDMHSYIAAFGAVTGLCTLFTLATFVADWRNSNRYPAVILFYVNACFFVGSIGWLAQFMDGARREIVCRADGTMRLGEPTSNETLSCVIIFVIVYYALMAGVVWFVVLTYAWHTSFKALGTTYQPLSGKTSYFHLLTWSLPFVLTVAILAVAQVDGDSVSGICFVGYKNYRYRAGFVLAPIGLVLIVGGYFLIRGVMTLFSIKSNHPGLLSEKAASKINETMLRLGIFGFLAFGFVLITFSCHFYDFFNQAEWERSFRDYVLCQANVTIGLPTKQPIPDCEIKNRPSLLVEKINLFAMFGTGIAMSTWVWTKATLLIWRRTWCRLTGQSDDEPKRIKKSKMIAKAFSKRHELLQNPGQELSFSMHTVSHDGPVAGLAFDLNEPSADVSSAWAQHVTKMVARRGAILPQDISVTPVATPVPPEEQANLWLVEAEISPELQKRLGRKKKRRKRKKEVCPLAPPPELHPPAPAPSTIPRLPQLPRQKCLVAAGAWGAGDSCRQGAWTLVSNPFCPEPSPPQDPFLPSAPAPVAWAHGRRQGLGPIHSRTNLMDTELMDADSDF
pIC50: −log10 of the molar value.
recorded endpoint: pIC50

These recorded examples may help you get a feel for the data.
COC(=O)c1ccc(C2CCN(c3nnc(Cc4ccccc4)c4ccccc34)CC2)cc1; 5.00 to 6.00
N#Cc1ccc(N2CCN(c3nnc(Cc4ccc(F)cc4)c4c3CCC4)CC2)nc1 [Example 93c]; > 7.00
COCC(=O)OCc1ccc(N2CCN(c3nnc(Cc4ccccc4)c4ccccc34)CC2)nc1; 6.00 to 7.00

Now consider the entry below.
Q) Form field - read-out: pIC50; system: human Smoothened receptor (Homo sapiens, UniProt Q99835); submitted item: CCOC(=O)c1ccc(N2CCN(c3nnc(Cc4ccccc4F)c4ccccc34)CC2)nc1
A) > 7.00

Cited source: patent US8536168B2
